- System: Mus musculus
- Test method notes: Anti-inflammatory activity in BALB/c mouse assessed as inhibition of LPS-induced IL-6 expression at 10 mg/kg, po pre-treated for 1 hr followed by LPS administration measured 2.5 hrs after LPS challenge by ELISA
- Format: functional
In this section, each of the compounds is paired with its reported inhibition in vivo at 10 mg/kg.
Reported endpoint: inhibition in vivo at 10 mg/kg (%)

Compound	Unit spec	Result value
CC(=O)O[C@@H]1CC[C@]2(C)[C@H]3CC=C4[C@@H]5[C@@H](C)[C@H](C)CC[C@]5(C)CC[C@@]4(C)[C@]3(C)CC[C@H]2[C@@]1(C)N	%	41.4
CC(=O)O[C@H]1CC[C@@]2(C)[C@@H](CC[C@]3(C)[C@@H]2CC=C2[C@@H]4[C@@H](C)[C@H](C)CC[C@]4(C)CC[C@]23C)[C@@]1(C)C(=O)O	%	19.5
CC(=O)O[C@@H]1CC[C@]2(C)[C@H]3C(=O)C=C4[C@@H]5[C@@H](C)[C@H](C)CC[C@]5(C)CC[C@@]4(C)[C@]3(C)CC[C@H]2[C@@]1(C)N	%	39.1
CCCC(=O)O[C@H]1CC[C@@]2(C)[C@@H](CC[C@]3(C)[C@@H]2CC=C2[C@@H]4[C@@H](C)[C@H](C)CC[C@]4(C)CC[C@]23C)[C@@]1(C)C(=O)O	%	51.6
CCCCCC(=O)O[C@H]1CC[C@@]2(C)[C@@H](CC[C@]3(C)[C@@H]2C(=O)C=C2[C@@H]4[C@@H](C)[C@H](C)CC[C@]4(C)CC[C@]23C)[C@@]1(C)C(=O)O	%	44.1
CC(=O)O[C@@H]1CC[C@@]2(C)[C@@H](CC[C@]3(C)[C@@H]2C(=O)C=C2[C@@H]4[C@@H](C)[C@H](C)CC[C@]4(C)CC[C@]23C)[C@@]1(C)C(=O)O [AKBA]	%	54.3
C[C@H]1[C@H](C)CC[C@]2(C)CC[C@]3(C)C(=CC(=O)[C@@H]4[C@@]5(C)CC[C@@H](O)[C@](C)(C(=O)O)[C@@H]5CC[C@]43C)[C@H]12 [11-KETO BOSWELLIC ACID]	%	61.6
CCCCCC(=O)O[C@H]1CC[C@@]2(C)[C@@H](CC[C@]3(C)[C@@H]2CC=C2[C@@H]4[C@@H](C)[C@H](C)CC[C@]4(C)CC[C@]23C)[C@@]1(C)C(=O)O	%	41.6
C[C@H]1[C@H](C)CC[C@]2(C)CC[C@]3(C)C(=CC[C@@H]4[C@@]5(C)CC[C@@H](O)[C@](C)(C(=O)O)[C@@H]5CC[C@]43C)[C@H]12 [BOSWELLIC ACID]	%	53
CCCCCC(=O)O[C@@H]1CC[C@@]2(C)[C@@H](CC[C@]3(C)[C@@H]2CC=C2[C@@H]4[C@@H](C)[C@H](C)CC[C@]4(C)CC[C@]23C)[C@@]1(C)C(=O)O	%	57.5
CCCC(=O)O[C@H]1CC[C@@]2(C)[C@@H](CC[C@]3(C)[C@@H]2C(=O)C=C2[C@@H]4[C@@H](C)[C@H](C)CC[C@]4(C)CC[C@]23C)[C@@]1(C)C(=O)O	%	48.5
CC(=O)O[C@@H]1CC[C@@]2(C)[C@@H](CC[C@]3(C)[C@@H]2C(=O)C=C2[C@@H]4[C@@H](C)[C@H](C)CC[C@]4(C)CC[C@]23C)[C@@]1(C)N=C=O	%	40.2
C[C@H]1[C@H](C)CC[C@]2(C)CC[C@]3(C)C(=CC(=O)[C@@H]4[C@@]5(C)CC[C@H](O)[C@](C)(C(=O)O)[C@@H]5CC[C@]43C)[C@H]12	%	28.9
COc1ccc(C2CNC(=O)C2)cc1OC1CCCC1 (centres undefined) [ROLIPRAM]	%	36.9
